# target.system: T1, KdpE DBD (KdpEDBD) (Escherichia coli str. K-12 substr. …, UniProt P21866 124-225)
# T1 sequence: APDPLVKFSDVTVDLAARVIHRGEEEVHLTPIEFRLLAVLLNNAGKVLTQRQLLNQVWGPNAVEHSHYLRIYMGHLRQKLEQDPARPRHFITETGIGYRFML
# protocol.summary: AUC sedimentation equilibrium; S1 half-site only, 1:1, AB model; AUC: 50 mM HEPES pH 7.4, 150 mM KCl, 1 mM EDTA, 20 C, DNA 0.5 uM in SV; EMSA: 10 mM Tris pH 8.0, 50 mM NaCl, 5% glycerol, 0.1% Triton X-100, 10 mM DTT, 1 mM EDT
# test.parameters: protein: recombinant; tags: N-terminal His-tag removed with TEV; chain copies: 2; blunt
value.kind: Kd (nM)

| binder | numeric.value |
| --- | --- |
| kdpFABCBS-7 (dsDNA) DNA 1: CATTTTTATACTTTTTCCACACCCCGCCCG DNA 2: CGGGCGGGGTGTGGAAAAAGTATAAAAATG | 350 |
